The origin of these recorded values is patent US11185100B2.

Reported EC50 values for the following compounds.
Molecular target: cat T1R1/T1R3 receptor (Felis catus)
Test: Activation of cat T1R1/T1R3 receptor by nucleotide derivatives alone, with alanine and/or IMP; HEK293 cells, intracellular calcium fluorescence (Example 1)
Format: cell-based
Conditions: compound alone in buffer; read-out: EC50- alone
Structures can show the parent of a compound that is named as a salt.
Lab book: enter the figure in µM, no units written.

> print(dat)
                                   compound  recorded.result
1  C[C@H](N)C(=O)O [alanine, reference compound]            13600

Report EC50 for O=c1nc[nH]c2c1ncn2C1O[C@H](COP(=O)(O)OP(=O)(O)OP(=O)(O)O)[C@@H](O)[C@H]1O (stereo partly shown) [trisodium salt] please.
50

###

Target: cat T1R1/T1R3 receptor (Felis catus)
Test: cell-based
Type: cell-based
From the text: Methods: HEK293 cells that stably express T1R3 and inducibly express T1R1 were exposed to nucleotide derivatives alone or in combination with one or more amino acids and/or one or more nucleotides to activate the umami receptor. Activation of the T1R1/T1R3 receptor was detected by a change in intracellular calcium levels using a calcium sensitive fluorescent dye and/or a luminescent reporter system. Cells that express T1R3 but not T1R1 were used as a control. […]
Where a name gives a salt, the structure may show the parent alone.
Would you mind classing the entries by Threshold? Ranges: category 1 = under 0.005 mM, category 2 = from 0.005 mM up to 0.05 mM, category 3 = 0.05 mM and over

COMPOUND	TARGET OR TEST SYSTEM	CAT
Nc1ncnc2c1nc(Cl)n2[C@@H]1O[C@H](COP(=O)(O)O)C(O)C1O (stereo partly drawn) [8-Chloroadenosine-5′-O-monophosphate]	cat T1R1/T1R3 receptor (Felis catus)	category 3
Nc1nc2c(ncn2[C@@H]2O[C@H](COP(=O)(O)O)[C@@H](O)[C@H]2O)c(=S)[nH]1 [6-thioguanosine-5′-O-monophosphate]	cat T1R1/T1R3 receptor (Felis catus)	category 1
CNc1ncnc2c1ncn2[C@@H]1O[C@H](COP(=O)(O)O)[C@@H](O)[C@H]1O [N6-Methyladenosine 5′-monophosphate]	cat T1R1/T1R3 receptor (Felis catus)	category 2
Nc1nc2c(ncn2[C@@H]2O[C@H](COP(=O)(O)O)[C@@H](O)[C@H]2O)c(=O)[nH]1 [GMP, guanosine monophosphate, reference compound]	cat T1R1/T1R3 receptor (Felis catus)	category 2
O=c1ccn([C@H]2O[C@@H](COP(=O)(O)O)[C@H](O)[C@@H]2O)c(=O)[nH]1 (stereo in doubt) [Uridine 5′-monophosphate disodium salt, reference compound]	cat T1R1/T1R3 receptor (Felis catus)	category 3
Nc1nc2c(ncn2[C@@H]2O[C@H](COP(O)(O)=S)C(O)C2O)c(=O)[nH]1 (stereo partly drawn) [Guanosine-5′-monophosphorothioate]	cat T1R1/T1R3 receptor (Felis catus)	category 1
O=P(O)(O)OP(=O)(O)OP(=O)(O)OC[C@H]1O[C@@H](n2cnc3c(Cl)ncnc32)[C@H](O)[C@@H]1O	cat T1R1/T1R3 receptor (Felis catus)	category 2
NC(=O)c1ncn(C2OC(COP(=O)(O)O)C(O)C2O)n1 (stereo not drawn) [Ribavirin 5′-Monophosphate]	cat T1R1/T1R3 receptor (Felis catus)	category 3

Read the next record carefully.
Sort Nc1nc2c(ncn2[C@H]2CC(O)[C@@H](COP(O)(O)=S)O2)c(=O)[nH]1 (stereo in doubt) into one of the categories.
category 1

###

Target: T1R1/T1R3 receptor (Felis catus, UniProt E3UMS2)
Test: Activation of T1R1/T1R3 receptor by transmembrane compounds and nucleotide derivatives, conducted as in Examples 1, 2 and 5 (Example 7)
Assay type: cell-based, cat
VALUE TYPE: Max resp ΔF/F +Alanine (20 mM)

Below are worked cases with known answers.
> print(dat)
                                   molecule                     target.or.test.system  recorded.result
1  Nc1nc2c(ncn2[C@@H]2O[C@H](COP(=O)(O)OP(=O)(O)O)[C@@H](O)[C@H]2O)c(=S)[nH]1 [6-Thioguanosine-5′-O-diphosphate]  T1R1/T1R3 receptor (Felis catus, UniProt E3UMS2)      1.0470 ΔF/F
2         COC(=O)[C@H](Cc1ccccc1)NCc1ccccc1  T1R1/T1R3 receptor (Felis catus, UniProt E3UMS2)      1.8725 ΔF/F

Turning now to a further record.
Report Max resp ΔF/F +Alanine (20 mM) for O=C(NCCc1c[nH]c2ccccc12)c1cccnc1 [N-(2-(1H-indol-3-yl)ethyl)nicotinamide, N-(2-(1H-Indol-3-yl)ethyl)nicotinamide] please.
1.1400 ΔF/F

###

Biological target: T1R1/T1R3 receptor (Felis catus, UniProt E3UMS2)
Assay: Activation of T1R1/T1R3 receptor by transmembrane compounds and nucleotide derivatives, conducted as in Examples 1, 2 and 5 (Example 7)
Assay type: cell-based, cat
Conditions: read-out: EC50 +Alanine (20 mM) + IMP (0.2 mM)
VALUE TYPE: pEC50
The quantity pEC50 is defined as the negative base-10 logarithm of the molar concentration.

Report pEC50 for O=C(NCCCCNC(=O)c1cccnc1)c1cccnc1 [N,N′-(butane-1,4-diyl)dinicotinamide] please.
3.21

###

Target: T1R1/T1R3 receptor (Felis catus)
Assay: PAM screening of transmembrane compounds with GMP and Ala on T1R1/T1R3 in HEK293 cells (Example 8)
Type: cell-based, cat
Settings: transmembrane compound at 0.01, 0.1 and 1 mM with GMP + Ala mixtures (T1-T4); PAM if response greater than sum of compound alone and GMP+Ala alone
VALUE TYPE: T1R1/T1R3 PAM

Below are worked cases with known answers.
> print(dat)
                                   compound  recorded.result
1  Cc1ccc(CNC(Cc2ccccc2)C(=O)O)cc1 (centres unmarked)               No
2  O=C(CN1C(=O)C(=O)N(Cc2ccccc2)C1=O)c1ccc(Br)cc1               No
3  O=C(CN1C(=O)C(=O)N(Cc2ccccc2)C1=O)c1ccccc1               No
4         COC(=O)[C@H](CC(C)C)NCc1ccccc1.Cl              Yes

Turning now to a further record.
Report T1R1/T1R3 PAM for "O=C(CN1C(=O)C(=O)N(CCc2cccs2)C1=O)c1cccc2ccccc12" please.
No

###

Target: T1R1/T1R3 receptor (Felis catus, UniProt E3UMS2)
Assay: PAM screening of transmembrane compounds with GMP and Ala on T1R1/T1R3 in HEK293 cells (Example 8)
Type: cell-based, cat
Settings: transmembrane compound at 0.01, 0.1 and 1 mM with GMP + Ala mixtures (T1-T4); PAM if response greater than sum of compound alone and GMP+Ala alone
Where a name gives a salt, the structure may show the parent alone.
VALUE TYPE: T1R1/T1R3 PAM

Below are worked cases with known answers.
> print(dat)
                                   compound                     target.or.test.system     value.type  recorded.result
1  O=C(CN1C(=O)C(=O)N(CCc2cccs2)C1=O)c1ccccc1  T1R1/T1R3 receptor (Felis catus, UniProt E3UMS2)  T1R1/T1R3 PAM               No
2  O=C(CN1C(=O)C(=O)N(CCc2cccs2)C1=O)c1ccc2c(c1)OCO2  T1R1/T1R3 receptor (Felis catus, UniProt E3UMS2)  T1R1/T1R3 PAM               No
3  COC(=O)[C@H](Cc1ccccc1)NCc1ccccc1 [Formula 15, hydrochloride]  T1R1/T1R3 receptor (Felis catus, UniProt E3UMS2)  T1R1/T1R3 PAM              Yes
4  COc1ccccc1C(=O)CN1C(=O)C(=O)N(Cc2cccs2)C1=O  T1R1/T1R3 receptor (Felis catus, UniProt E3UMS2)  T1R1/T1R3 PAM               No
5  COC(=O)C(NCc1ccccc1)c1ccccc1 (stereo not drawn) [Formula 19, Methyl-2-benzylamino-2-phenylacetate]  T1R1/T1R3 receptor (Felis catus, UniProt E3UMS2)  T1R1/T1R3 PAM              Yes

Report T1R1/T1R3 PAM for "O=C(O)[C@H](Cc1ccc(O)cc1)NCc1ccccc1" please.
No

Another compound to check: "O=C1CC(=O)N(Cc2ccccc2)C(=O)N1Cc1ccccc1"
No

Another compound to check: "O=C1C(=O)N(Cc2ccccc2)C(=S)N1Cc1ccccc1"
No

Another compound to check: "Cl.N[C@@H](Cc1ccccc1)C(=O)OCc1ccccc1"
Yes

###

Biological target: cat T1R1/T1R3 receptor (Felis catus)
Assay: cell-based
Assay type: cell-based
Where a name gives a salt, the structure may show the parent alone.
Reported Threshold values for the following compounds.
Lab book: enter the figure in mM, no units written.

COMPOUND	VALUE TYPE	RECORDED RESULT
O=P(O)(O)OC[C@H]1O[C@@H](n2cnc3c(NC4CCCC4)ncnc32)[C@H](O)[C@@H]1O	Threshold	0.013

Report Threshold for Nc1ncnc2c1ncn2[C@@H]1O[C@H](COP(=O)(O)O)[C@@H](O)[C@H]1O [Adenosine 5′-monophosphate disodium salt, reference compound] please.
0.003
